test: The equipotent molar ratio relative to oxotremorine (EPMR); format: ADME
We begin with a simple list: items and their reported Ratio.

[
  {
    "COMPOUND": "C[N+](C)(C)CCOC(N)=O.[Cl-] [CARBACHOL]",
    "Ratio": 2.6
  },
  {
    "COMPOUND": "CN(CC#CCN1CCCC1=O)CCCCl",
    "Ratio": 2.78
  },
  {
    "COMPOUND": "C[N+]1(CC#CCN2CCCC2=O)CCCC1",
    "Ratio": 8.31
  },
  {
    "COMPOUND": "O=C1CCCN1CC#CCN1CCCC1 [OXOTREMORINE]",
    "Ratio": 1
  }
]

---

experiment: First order rate constant for cyclization of the compound; type: ADME
Tag: TRUE if measured K1 is not below 0.02 min⁻¹, FALSE if it is.

[
  {
    "MOLECULE": "CC1CCC(=O)N1CC#CCN(C)CCCBr (configuration not stated)",
    "CLASS ASSIGNMENT": "TRUE"
  },
  {
    "MOLECULE": "CN(CC#CCN1CCCC1=O)CCCl",
    "CLASS ASSIGNMENT": "FALSE"
  },
  {
    "MOLECULE": "CN(CC#CCN1CCCC1=O)CCCCl",
    "CLASS ASSIGNMENT": "FALSE"
  },
  {
    "MOLECULE": "CN(CC#CCN1CCCC1=O)CCBr",
    "CLASS ASSIGNMENT": "TRUE"
  },
  {
    "MOLECULE": "CN(CC#CCN1CCCC1=O)CCCBr",
    "CLASS ASSIGNMENT": "TRUE"
  },
  {
    "MOLECULE": "CN(CC#CCN1CCCC1=O)CCCI",
    "CLASS ASSIGNMENT": "TRUE"
  },
  {
    "MOLECULE": "CN(CC#CCN1CCCC1=O)CCCCCl",
    "CLASS ASSIGNMENT": "TRUE"
  }
]

---

assay: Toxicity was measured after iv administration; format: organism-based; conditions: mouse, in vivo
We begin with a simple list: items and their reported LD50.

[
  {
    "COMPOUND": "CN(CC#CCN1CCCC1=O)CCCCl",
    "CMP": "=",
    "LD50 / µmol/kg": 245
  },
  {
    "COMPOUND": "CN(CC#CCN1CCCC1=O)CCCBr",
    "CMP": "=",
    "LD50 / µmol/kg": 46.7
  },
  {
    "COMPOUND": "CC1CCC(=O)N1CC#CCN(C)CCCBr (stereo not given)",
    "CMP": ">",
    "LD50 / µmol/kg": 250
  },
  {
    "COMPOUND": "CN(CC#CCN1CCCC1=O)CCCCCl",
    "CMP": "=",
    "LD50 / µmol/kg": 8
  },
  {
    "COMPOUND": "CN(CC#CCN1CCCC1=O)CCCI",
    "CMP": ">",
    "LD50 / µmol/kg": 125
  }
]
